target: factor Xa (Homo sapiens); test: Fluorogenic enzyme assay (Example 5); type: biochemical; conditions: enzyme 100 nM, substrate 1 μM
Reported Property: Time (min) for 10% hydrolysis, Xa

• Br.CC(C)CNS(=O)(=O)c1cccc2cc(NC(=O)[C@H](CCCNC(=N)N)NC(=O)OCc3ccccc3)ccc12 = 33 min
• Br.N=C(N)NCCC[C@H](NC(=O)OCc1ccccc1)C(=O)Nc1ccc2c(S(=O)(=O)N3CCOCC3)cccc2c1 = 45 min
• Br.CCCCCNS(=O)(=O)c1cccc2cc(NC(=O)[C@H](CCCNC(=N)N)NC(=O)OCc3ccccc3)ccc12 = 45 min

----------
# kcat, Xa listing for each entry below
Target: factor Xa (Homo sapiens, UniProt P00742)
Sequence (P00742 235-488 limits assumed): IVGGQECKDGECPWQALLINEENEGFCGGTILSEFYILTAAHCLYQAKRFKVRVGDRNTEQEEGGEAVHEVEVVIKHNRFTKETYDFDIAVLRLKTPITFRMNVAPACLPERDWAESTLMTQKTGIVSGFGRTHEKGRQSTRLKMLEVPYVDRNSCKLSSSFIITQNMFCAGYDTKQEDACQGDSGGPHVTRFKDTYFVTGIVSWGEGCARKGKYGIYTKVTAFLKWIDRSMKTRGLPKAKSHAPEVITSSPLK
Sequence (P00742 41-179 limits assumed): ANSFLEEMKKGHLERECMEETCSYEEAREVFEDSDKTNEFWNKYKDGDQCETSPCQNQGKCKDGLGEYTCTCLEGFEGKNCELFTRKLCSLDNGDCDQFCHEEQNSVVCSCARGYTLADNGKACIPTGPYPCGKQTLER
Assay: Fluorogenic enzyme assay (Example 5)
Assay type: biochemical
Conditions: Table 7
Procedure: Enzyme assays (except factor VIIa assays, see below) were conducted in 20 mM Tris, 150 mM NaCl, pH 7.4 (TBS) at room temperature (22° C.). The final volume for all reaction mixtures was 2.0 ml. […] Enzyme was added to mixtures containing buffer components and substrate and the initial rate of substrate hydrolysis was measured as the change in fluorescent intensity over time, corresponding to the generation of the particular 6-amino-1-naphthalenesulfonamide fluorophore from the provided substrate. […]
Reported Property: kcat, Xa (s⁻¹)

- Br.CC(C)(C)NS(=O)(=O)c1cccc2cc(NC(=O)[C@H](CCCNC(=N)N)NC(=O)OCc3ccccc3)ccc12: 0.06
- Br.CC(C)CNS(=O)(=O)c1cccc2cc(NC(=O)[C@H](CCCNC(=N)N)NC(=O)OCc3ccccc3)ccc12: 0.07
- Br.CCN(CC)S(=O)(=O)c1cccc2cc(NC(=O)[C@H](CCCNC(=N)N)NC(=O)OCc3ccccc3)ccc12: 0.26
- Br.CCCNS(=O)(=O)c1cccc2cc(NC(=O)[C@H](CCCNC(=N)N)NC(=O)OCc3ccccc3)ccc12: 0.07
- Br.CN(C)S(=O)(=O)c1cccc2cc(NC(=O)[C@H](CCCNC(=N)N)NC(=O)OCc3ccccc3)ccc12: 0.09
- Br.CNS(=O)(=O)c1cccc2cc(NC(=O)[C@H](CCCNC(=N)N)NC(=O)OCc3ccccc3)ccc12: 0.11
- Br.N=C(N)NCCC[C@H](NC(=O)OCc1ccccc1)C(=O)Nc1ccc2c(S(=O)(=O)NC3CCCCC3)cccc2c1: 0.03
- Br.N=C(N)NCCC[C@H](NC(=O)OCc1ccccc1)C(=O)Nc1ccc2c(S(=O)(=O)N3CCCCCC3)cccc2c1: 0.13
- Br.N=C(N)NCCC[C@H](NC(=O)OCc1ccccc1)C(=O)Nc1ccc2c(S(=O)(=O)NCc3ccccc3)cccc2c1: 0.04
- Br.CC(C)NS(=O)(=O)c1cccc2cc(NC(=O)[C@H](CCCNC(=N)N)NC(=O)OCc3ccccc3)ccc12: 0.08
- Br.CCCCCNS(=O)(=O)c1cccc2cc(NC(=O)[C@H](CCCNC(=N)N)NC(=O)OCc3ccccc3)ccc12: 0.04
- Br.N=C(N)NCCC[C@H](NC(=O)OCc1ccccc1)C(=O)Nc1ccc2c(S(=O)(=O)N3CCOCC3)cccc2c1: 0.05

----------
biological target: thrombin (IIa) (Homo sapiens, UniProt P00734); construct: 0.5 nM human thrombin (IIa); test: Fluorogenic enzyme assay (Example 5); format: biochemical; conditions: Table 7
# kcat /Km, IIa listing for each entry below
Reported Property: kcat /Km, IIa (M⁻¹ s⁻¹)

• Br.N=C(N)NCCC[C@H](NC(=O)OCc1ccccc1)C(=O)Nc1ccc2c(S(=O)(=O)NC3CCCCC3)cccc2c1 = 1090
• Br.CN(C)S(=O)(=O)c1cccc2cc(NC(=O)[C@H](CCCNC(=N)N)NC(=O)OCc3ccccc3)ccc12 = 630
• Br.CCCNS(=O)(=O)c1cccc2cc(NC(=O)[C@H](CCCNC(=N)N)NC(=O)OCc3ccccc3)ccc12 = 1580
• Br.CNS(=O)(=O)c1cccc2cc(NC(=O)[C@H](CCCNC(=N)N)NC(=O)OCc3ccccc3)ccc12 = 640
• Br.CC(C)CNS(=O)(=O)c1cccc2cc(NC(=O)[C@H](CCCNC(=N)N)NC(=O)OCc3ccccc3)ccc12 = 1420
• Br.CC(C)NS(=O)(=O)c1cccc2cc(NC(=O)[C@H](CCCNC(=N)N)NC(=O)OCc3ccccc3)ccc12 = 1180

----------
# Km listing for each entry below
molecular target: thrombin (IIa) (Homo sapiens, UniProt P00734); construct: 0.5 nM human thrombin (IIa); experiment: Fluorogenic enzyme assay (Example 5); format: biochemical; conditions: Table 7
Reported Property: Km (µM)

- Br.CNS(=O)(=O)c1cccc2cc(NC(=O)[C@H](CCCNC(=N)N)NC(=O)OCc3ccccc3)ccc12 [(N^α -Z)ArgANSNR1 R2; H; CH3]: 62.5
- Br.CC(C)NS(=O)(=O)c1cccc2cc(NC(=O)[C@H](CCCNC(=N)N)NC(=O)OCc3ccccc3)ccc12 [(N^α -Z)ArgANSNR1 R2; H; i-C3 H7]: 25
- Br.CCCNS(=O)(=O)c1cccc2cc(NC(=O)[C@H](CCCNC(=N)N)NC(=O)OCc3ccccc3)ccc12 [(N^α -Z)ArgANSNR1 R2; H; C3 H7]: 22.2
- Br.CN(C)S(=O)(=O)c1cccc2cc(NC(=O)[C@H](CCCNC(=N)N)NC(=O)OCc3ccccc3)ccc12 [(N^α -Z)ArgANSNR1 R2; CH3; CH3]: 22.6
- Br.CC(C)(C)NS(=O)(=O)c1cccc2cc(NC(=O)[C@H](CCCNC(=N)N)NC(=O)OCc3ccccc3)ccc12 [(N^α -Z)ArgANSNR1 R2; H; t-C4 H9]: 24
- Br.CC(C)CNS(=O)(=O)c1cccc2cc(NC(=O)[C@H](CCCNC(=N)N)NC(=O)OCc3ccccc3)ccc12 [(N^α -Z)ArgANSNR1 R2; H; i-C4 H9]: 35.3
- Br.N=C(N)NCCC[C@H](NC(=O)OCc1ccccc1)C(=O)Nc1ccc2c(S(=O)(=O)NCc3ccccc3)cccc2c1 [(N^α -Z)ArgANSNR1 R2; H; benzyl]: 41
- Br.CCCCCNS(=O)(=O)c1cccc2cc(NC(=O)[C@H](CCCNC(=N)N)NC(=O)OCc3ccccc3)ccc12 [(N^α -Z)ArgANSNR1 R2; H; C5 H11]: 41.4
- Br.N=C(N)NCCC[C@H](NC(=O)OCc1ccccc1)C(=O)Nc1ccc2c(S(=O)(=O)NC3CCCCC3)cccc2c1 [(N^α -Z)ArgANSNR1 R2; H; cyclo-C6 H11]: 27.9

----------
target: plasmin (Plm) (Homo sapiens, UniProt P00747); assay: Fluorogenic enzyme assay (Example 5); assay type: biochemical; settings: 100 nM enzyme (footnote b), substrate 1 μM
Sequence (P00747 581-810 limits assumed, species assumed): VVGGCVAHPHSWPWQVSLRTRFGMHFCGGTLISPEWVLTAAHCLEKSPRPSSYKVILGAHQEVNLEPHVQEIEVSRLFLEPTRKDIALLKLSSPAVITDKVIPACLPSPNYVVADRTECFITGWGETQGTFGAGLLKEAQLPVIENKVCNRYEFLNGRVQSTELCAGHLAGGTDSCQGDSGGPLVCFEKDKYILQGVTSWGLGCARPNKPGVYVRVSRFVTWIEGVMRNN
Sequence (P00747 97-580 limits assumed, species assumed): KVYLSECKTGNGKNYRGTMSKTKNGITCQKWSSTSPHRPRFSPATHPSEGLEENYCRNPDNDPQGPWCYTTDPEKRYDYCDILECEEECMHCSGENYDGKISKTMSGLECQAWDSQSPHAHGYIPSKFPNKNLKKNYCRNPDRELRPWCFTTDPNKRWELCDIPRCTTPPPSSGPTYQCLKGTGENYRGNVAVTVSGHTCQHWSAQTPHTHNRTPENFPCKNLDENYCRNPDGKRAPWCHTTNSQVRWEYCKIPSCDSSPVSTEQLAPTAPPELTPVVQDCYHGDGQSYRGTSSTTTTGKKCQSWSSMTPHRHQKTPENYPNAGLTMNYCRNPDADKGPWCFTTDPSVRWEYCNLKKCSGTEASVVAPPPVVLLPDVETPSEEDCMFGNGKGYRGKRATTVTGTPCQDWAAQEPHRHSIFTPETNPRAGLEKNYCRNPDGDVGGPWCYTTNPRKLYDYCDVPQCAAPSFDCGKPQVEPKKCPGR
Reported Property: TIME TO 10% HYDROLYSIS (HOURS), Plm

- CN(C)S(=O)(=O)c1cccc2cc(NC(=O)[C@H](CCCNC(=N)N)NC(=O)[C@H](CCCCNC(=O)OCc3ccccc3)NC(=O)OC(C)(C)C)ccc12 [(N^α -Boc,N^.cndot. -Z)KR-ANSN(CH23)2]: 1.5 h
- CN(C)S(=O)(=O)c1cccc2cc(NC(=O)[C@H](CCCNC(=N)N)NC(=O)[C@@H](N)CCCCNC(=O)OCc3ccccc3)ccc12.Cl.Cl [N^ω -AZ)KJR-ANSN(CH3)2]: 1.5 h
- Br.Br.Br.N=C(N)NCCC[C@H](NC(=O)CNC(=O)CN)C(=O)N[C@@H](CCCNC(=N)N)C(=O)Nc1ccc2c(S(=O)(=O)NC3CCCCC3)cccc2c1 [GGRR-ANSNH(cyclo-C6 H11)]: 2.5 h
- Br.Br.Br.CN(C)S(=O)(=O)c1cccc2cc(NC(=O)[C@H](CCCNC(=N)N)NC(=O)[C@@H](N)CCCCN)ccc12 [KR-ANSN(CH3)2]: 8 h

----------
# kcat, IIa listing for each entry below
target: thrombin (IIa) (Homo sapiens); construct: 0.5 nM human thrombin (IIa); experiment: Fluorogenic enzyme assay (Example 5); type: biochemical; conditions: Table 9
Reported Property: kcat, IIa

- CCCNS(=O)(=O)c1cccc2cc(NC(=O)[C@H](CCCNC(=N)N)NC(=O)[C@H](Cc3ccccc3)NC(=O)[C@@H]3CCCN3)ccc12.Cl.Cl: 0.36 s⁻¹
- CCN(CC)S(=O)(=O)c1cccc2cc(NC(=O)[C@H](CCCNC(=N)N)NC(=O)CNC(=O)[C@@H](CC(C)C)NS(C)(=O)=O)ccc12: 0.63 s⁻¹
- CCCNS(=O)(=O)c1cccc2cc(NC(=O)[C@H](CCCNC(=N)N)NC(=O)[C@H](Cc3ccccc3)NC(=O)[C@@H]3CCCN3C(=O)OC(C)(C)C)ccc12: 0.04 s⁻¹
- CC(C)C[C@@H](NC(=O)OCc1ccccc1)C(=O)N1CCC[C@H]1C(=O)N[C@@H](CCCNC(=N)N)C(=O)Nc1ccc2c(S(=O)(=O)N3CCCCC3)cccc2c1: 16.1 s⁻¹
- Br.Br.CC(C)C[C@@H](N)C(=O)N1CCC[C@H]1C(=O)N[C@@H](CCCNC(=N)N)C(=O)Nc1ccc2c(S(=O)(=O)N3CCCCC3)cccc2c1: 11.6 s⁻¹
- Cc1ccc(S(=O)(=O)NCC(=O)N2CCC[C@H]2C(=O)N[C@@H](CCCNC(=N)N)C(=O)Nc2ccc3c(S(=O)(=O)NCC(C)C)cccc3c2)cc1: 52.6 s⁻¹
